# Lookup of reported IC50 keyed by entry
Target: PI3Kα (p110α/p85α) (Homo sapiens)
Sequence (P42336 whole entry): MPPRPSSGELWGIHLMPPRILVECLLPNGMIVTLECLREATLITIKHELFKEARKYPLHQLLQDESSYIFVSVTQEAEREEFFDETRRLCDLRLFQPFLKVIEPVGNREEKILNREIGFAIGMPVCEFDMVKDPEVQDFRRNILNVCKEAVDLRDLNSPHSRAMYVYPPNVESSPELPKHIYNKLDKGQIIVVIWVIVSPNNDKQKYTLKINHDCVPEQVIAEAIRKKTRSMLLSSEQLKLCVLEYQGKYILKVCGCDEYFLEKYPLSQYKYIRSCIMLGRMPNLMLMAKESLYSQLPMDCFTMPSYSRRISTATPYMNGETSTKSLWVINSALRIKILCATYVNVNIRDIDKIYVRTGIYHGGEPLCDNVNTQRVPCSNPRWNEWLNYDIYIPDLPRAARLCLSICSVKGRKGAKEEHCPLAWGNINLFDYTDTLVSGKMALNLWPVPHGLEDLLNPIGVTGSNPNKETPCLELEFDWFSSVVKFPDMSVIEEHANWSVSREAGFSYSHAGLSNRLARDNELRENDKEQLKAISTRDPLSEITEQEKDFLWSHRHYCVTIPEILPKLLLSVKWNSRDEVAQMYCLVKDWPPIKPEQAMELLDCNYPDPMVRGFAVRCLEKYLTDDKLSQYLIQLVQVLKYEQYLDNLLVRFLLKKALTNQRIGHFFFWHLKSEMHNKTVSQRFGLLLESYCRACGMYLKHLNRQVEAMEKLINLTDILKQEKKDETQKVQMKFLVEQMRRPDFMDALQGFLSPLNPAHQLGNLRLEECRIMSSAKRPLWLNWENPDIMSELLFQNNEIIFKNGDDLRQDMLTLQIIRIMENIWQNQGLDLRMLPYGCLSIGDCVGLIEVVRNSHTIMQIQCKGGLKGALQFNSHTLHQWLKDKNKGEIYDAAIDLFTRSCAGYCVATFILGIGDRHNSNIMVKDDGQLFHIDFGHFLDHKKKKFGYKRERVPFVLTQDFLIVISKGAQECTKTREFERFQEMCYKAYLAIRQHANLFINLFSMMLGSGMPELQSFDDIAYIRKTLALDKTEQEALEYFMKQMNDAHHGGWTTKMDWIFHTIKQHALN
Sequence (P27986 whole entry partner): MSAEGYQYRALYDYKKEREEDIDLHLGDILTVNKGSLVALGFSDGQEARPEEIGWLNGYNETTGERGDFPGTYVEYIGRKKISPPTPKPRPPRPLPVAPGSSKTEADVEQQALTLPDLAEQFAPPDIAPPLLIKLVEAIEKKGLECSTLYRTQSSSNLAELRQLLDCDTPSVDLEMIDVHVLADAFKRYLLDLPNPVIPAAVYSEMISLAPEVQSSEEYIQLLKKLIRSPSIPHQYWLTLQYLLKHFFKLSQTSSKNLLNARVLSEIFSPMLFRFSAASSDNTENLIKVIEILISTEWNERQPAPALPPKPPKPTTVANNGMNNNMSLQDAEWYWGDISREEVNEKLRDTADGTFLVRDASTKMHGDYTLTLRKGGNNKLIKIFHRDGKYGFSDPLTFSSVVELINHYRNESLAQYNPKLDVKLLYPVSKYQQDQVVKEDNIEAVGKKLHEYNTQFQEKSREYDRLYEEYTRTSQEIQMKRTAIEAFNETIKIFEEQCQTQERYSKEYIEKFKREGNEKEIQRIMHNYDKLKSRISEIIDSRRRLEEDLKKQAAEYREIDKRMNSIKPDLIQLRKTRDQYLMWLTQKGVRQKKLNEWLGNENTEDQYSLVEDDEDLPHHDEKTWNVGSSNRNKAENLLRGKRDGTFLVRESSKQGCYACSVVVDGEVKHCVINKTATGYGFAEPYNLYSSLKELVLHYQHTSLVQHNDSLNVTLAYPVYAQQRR
Assay: HTRF assay, potency against active PI3Kα
Conditions: HTRF; [ATP]=50 μM, [di-C8-PIP2]=10 μM; 30 min pre-incubation; read-out: PI3Kα Inhibition
MEASUREMENT_KIND: IC50

INSERT INTO assay_data (compound, measured_value) VALUES
  ('C=CC(=O)N1CCC(C#Cc2cc3nc(-c4cccc(O)c4)nc(N4CCOCC4)c3s2)CC1 [II-a-70]', '10 to 100 nM'),
  ('C=CC(=O)N1CCN(C(=O)c2ccc(-c3cc4nc(-c5cccc6[nH]ncc56)nc(N5CCOCC5)c4s3)cc2)CC1 [II-a-57]', '100 to 1000 nM'),
  ('C/C=C/C(=O)CCC(=O)N1CCN(CC#Cc2cc3nc(-c4cccc(O)c4)nc(N4CCOCC4)c3s2)CC1 [II-a-48]', '< 10 nM'),
  ('CC(C)=CC(=O)CCCC(=O)N1CCN(Cc2cc(-c3cnc(N)nc3)nc(N3CCOCC3)c2)CC1 [XII-23]', '100 to 1000 nM'),
  ('C=CC(=O)Nc1ccc(CC(=O)N2CCC(n3ncc4c(N5CCOCC5)nc(-c5ccc(NC(=O)NC)cc5)nc43)CC2)cc1 [VII-9]', '100 to 1000 nM'),
  ('COC/C=C(\C)C(=O)CCC(=O)N1CCN(Cc2cc3nc(-c4cccc5[nH]ncc45)nc(N4CCOCC4)c3s2)CC1 [II-a-161]', '100 to 1000 nM'),
  ('C=CC(=O)Nc1ccc(C(=O)N2CC=C(c3cc4nc(-c5cccc(O)c5)nc(N5CCOCC5)c4s3)CC2)cc1OCCCN [II-a-155]', '10 to 100 nM'),
  ('C=CC(=O)Nc1ccc(C(=O)N2CCC3(CC2)CN(c2cc(-c4cnc(N)nc4)nc(N4CCOCC4)c2)C3)cc1 [XII-52]', '100 to 1000 nM'),
  ('Cn1ccnc1/C=C/C(=O)CCC(=O)N1CCN(Cc2cc3nc(-c4cccc5[nH]ncc45)nc(N4CCOCC4)c3s2)CC1 [II-a-129]', '100 to 1000 nM'),
  ('CC(C)=CC(=O)CCCC(=O)N1CC2(CCN(c3cc(-c4cnc(N)nc4)nc(N4CCOCC4)c3)CC2)C1 [XII-44]', '> 1000 nM'),
  ('O=C(/C=C(/c1ccccc1)C(F)(F)F)CCC(=O)N1CCN(Cc2cc3nc(-c4cccc5[nH]ncc45)nc(N4CCOCC4)c3s2)CC1 [II-a-158]', '10 to 100 nM'),
  ('CC(C)=CC(=O)CCC(=O)N1CCN(c2ccc(-c3ccnc4ccc(/C=C5\SC(=O)NC5=O)cc34)cn2)CC1 [V-18]', '< 10 nM'),
  ('CC(C)=CC(=O)CCCC(=O)N1CCC(c2cc3nc(-c4cnc(N)nc4)cc(N4CCOCC4)c3s2)CC1 [II-g-6]', '100 to 1000 nM'),
  ('C=CC(=O)Nc1ccc(C(=O)N2CC=C(c3cc(-c4cnc(N)nc4)nc(N4CCOCC4)c3)CC2)cc1 [XII-46]', '100 to 1000 nM'),
  ('CC(C)=CC(=O)CCCC(=O)N1CC=C(c2cc3nc(-c4cnc(N)nc4)cc(C4=CCOCC4)c3s2)CC1 [II-g-4]', '> 1000 nM'),
  ('O=C(/C=C/c1cccs1)CCC(=O)N1CCN(Cc2cc3nc(-c4cccc5[nH]ncc45)nc(N4CCOCC4)c3s2)CC1 [II-a-126]', '100 to 1000 nM'),
  ('C=CC(=O)Nc1ccc(C(=O)N2CCN(Cc3cc4nc(-c5cccc6[nH]ncc56)nc(N5CCOCC5)c4s3)CC2)cc1 [II-a-117]', '100 to 1000 nM'),
  ('C/C=C/C(=O)CCC(=O)N1CCc2ccc(-c3cc4nc(-c5cccc(O)c5)nc(N5CCOCC5)c4s3)cc2C1 [II-a-67]', '< 10 nM'),
  ('CC(C)=CC(=O)CN1CCN(C2CCN(c3cc(-c4cnc(N)nc4)nc(N4CCOCC4)c3)CC2)CC1 [XII-34]', '100 to 1000 nM'),
  ('CCC(=O)NC1CCN(c2ccc(-c3cc4nc(-c5cccc(O)c5)nc(N5CCOCC5)c4s3)cc2)CC1 [II^R-a-81]', '100 to 1000 nM'),
  ('C=CC(=O)Nc1ccc(CCNC(=O)c2cc(-c3cnc(N)cc3C(F)(F)F)nc(N3CCOCC3)c2)cc1 [XII-11]', '> 1000 nM'),
  ('C/C=C/C(=O)CCCC(=O)NCC(=O)Nc1ccc2c(c1)N(c1nc3c(s1)C(=O)NC(C)(C)C3)CCO2 [VI-25]', '> 1000 nM'),
  ('C=C(C)C(=O)CCC(=O)N1CCN(Cc2cc3nc(-c4cccc(O)c4)nc(N4CCOCC4)c3s2)CC1 [II-a-49]', '10 to 100 nM'),
  ('C/C=C/C(=O)CCCC(=O)N1CCN(Cc2cc3nc(-c4cccc5[nH]ncc45)nc(N4CCOCC4)c3s2)CC1 [II-a-22]', '10 to 100 nM'),
  ('C/C=C/C(=O)CCC(=O)N1CCc2cc(-c3cc4nc(-c5cccc(O)c5)nc(N5CCOCC5)c4s3)ccc2C1 [II-a-108]', '< 10 nM'),
  ('O=C(CCl)N1CCN(Cc2cc3nc(-c4cccc5[nH]ncc45)nc(N4CCOCC4)c3s2)CC1 [II-a-145]', '100 to 1000 nM'),
  ('CC(C)=CC(=O)c1ccc(C(=O)N2CC=C(c3cc(-c4cnc(N)nc4)nc(N4CCOCC4)c3)CC2)cc1 [XII-50]', '100 to 1000 nM'),
  ('CNC(=O)Nc1ccc(-c2nc(N3CCOCC3)c3cnn(C4CCN(C(=O)CCCC(=O)/C=C/c5ccccc5)CC4)c3n2)cc1 [VII-11]', '100 to 1000 nM'),
  ('CC(C)=CC(=O)CCC(=O)N1CC2(CCN(c3cc(-c4cnc(N)nc4)nc(N4CCOCC4)c3)CC2)C1 [XII-42]', '> 1000 nM');

Where these numbers come from: patent US20110230476A1
